# viability, T/C listing for each entry below
Tested on: 931267-113-T-J1-PDC multicell spheroid viability;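 note: viability read 7 days after compound addition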
measurementNotes: Anticancer human tumor 931267-113-T-J1-PDC patient-derived colon adenocarcinoma cell line growth inhibition [PI3K]
experimentalConditions: second compound 1 µM; first compound 0.000316 µM; hits give low values
resultType: viability, T/C (%)

{"compound": "CC(C)n1nc(-c2ccc3oc(N)nc3c2)c2c(N)ncnc21 + CC(Nc1ncnc2nc[nH]c12)c1cc2cccc(Cl)c2c(=O)n1-c1ccccc1", "resultType": "viability, T/C", "unitInfo": "%", "valueReported": 95.6}
{"compound": "Cn1ncnc1[C@H]1c2n[nH]c(=O)c3cc(F)cc(c23)N[C@@H]1c1ccc(F)cc1 + CC(Nc1ncnc2nc[nH]c12)c1cc2cccc(Cl)c2c(=O)n1-c1ccccc1", "resultType": "viability, T/C", "unitInfo": "%", "valueReported": 109}
{"compound": "Cn1ncnc1[C@H]1c2n[nH]c(=O)c3cc(F)cc(c23)N[C@@H]1c1ccc(F)cc1 + CC(Nc1ccc2c(c1)OCCn1cc(N3C(=O)OCC3C(F)F)nc1-2)C(N)=O", "resultType": "viability, T/C", "unitInfo": "%", "valueReported": 78.2}
{"compound": "CC(=O)c1c(C)c2cnc(Nc3ccc(N4CCNCC4)cn3)nc2n(C2CCCC2)c1=O + CC(Nc1ccc2c(c1)OCCn1cc(N3C(=O)OCC3C(F)F)nc1-2)C(N)=O", "resultType": "viability, T/C", "unitInfo": "%", "valueReported": 75.9}
{"compound": "Cn1ncnc1[C@H]1c2n[nH]c(=O)c3cc(F)cc(c23)N[C@@H]1c1ccc(F)cc1 + Cc1nc(NC(=O)N2CCCC2C(N)=O)sc1-c1ccnc(C(C)(C)C(F)(F)F)c1", "resultType": "viability, T/C", "unitInfo": "%", "valueReported": 74.5}
